Each record here notes measured IC50.
# Test System: Human CGRP1 Receptor (Homo sapiens, UniProt O60894+Q16602)
# Construct: endogenous in cells; host or cells: SK-N-MC cells (membrane homogenate)
# Sequence (Q16602 23-461): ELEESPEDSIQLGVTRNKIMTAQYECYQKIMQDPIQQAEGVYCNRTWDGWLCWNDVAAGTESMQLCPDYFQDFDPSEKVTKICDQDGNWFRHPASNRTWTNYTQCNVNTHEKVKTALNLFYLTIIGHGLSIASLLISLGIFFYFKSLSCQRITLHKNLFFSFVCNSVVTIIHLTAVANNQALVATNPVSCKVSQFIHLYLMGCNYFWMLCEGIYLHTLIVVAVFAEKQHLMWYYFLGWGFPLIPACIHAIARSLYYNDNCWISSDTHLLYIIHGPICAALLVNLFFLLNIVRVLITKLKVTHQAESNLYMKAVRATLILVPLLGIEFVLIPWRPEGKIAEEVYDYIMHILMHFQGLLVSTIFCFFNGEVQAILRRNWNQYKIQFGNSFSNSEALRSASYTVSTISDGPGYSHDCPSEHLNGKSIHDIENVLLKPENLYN
# Sequence (O60894 27-148): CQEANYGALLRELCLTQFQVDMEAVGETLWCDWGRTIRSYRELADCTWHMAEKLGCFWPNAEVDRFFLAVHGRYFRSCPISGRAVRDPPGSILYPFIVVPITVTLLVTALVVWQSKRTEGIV
# Method Description: CGRP Binding Assay ([125I]-CGRP radioligand displacement, SK-N-MC membrane homogenate)
# Test Parameters: [125I]-CGRP displacement, SK-N-MC homogenate, room temperature 2 h; read-out: Human CGRP1 Receptor IC50
Property Label: IC50

Cc1cc(CC(OC(=O)N2CCC(N3Cc4ccccc4NC3=O)CC2)c2ccccn2)cc2cn[nH]c12 (stereo not shown): < 10 nM
Cc1cc(CC(OC(=O)N2CCC(N3Cc4ccccc4NC3=O)CC2)c2cc(CO)ccn2)cc2cn[nH]c12 (racemic): < 10 nM
Cc1cc(CC(CC(=O)N2CCC(N3Cc4ccccc4NC3=O)CC2)c2nc(Cc3ccncc3)no2)cc2cn[nH]c12 (racemic): 10 to 100 nM
Cc1cc(CC(NC(=O)N2CCC(N3Cc4ccccc4NC3=O)CC2)c2nnnn2CC(C)(C)C)cc2cn[nH]c12 (racemic): < 10 nM
Cc1cc(CC(OC(=O)N2CCC(N3Cc4cccc(F)c4NC3=O)CC2)c2cccc(C#N)n2)cc2cn[nH]c12 (racemic): < 10 nM
Cc1cc(CC(CC(=O)N2CCC(N3Cc4ccccc4NC3=O)CC2)c2nc(-c3ccccc3)no2)cc2cn[nH]c12 (racemic): 10 to 100 nM
Cc1cc(CC(OC(=O)N2CCC(N3Cc4ccccc4NC3=O)CC2)c2cc(C(=O)O)ccn2)cc2cn[nH]c12 (racemic): 10 to 100 nM

Data credit: patent US7569578B2
